FYI, the data here is from paper PMC4897788.

# Measured on: EGFR (Homo sapiens, UniProt P00533)
# Sequence (P00533 669-1210): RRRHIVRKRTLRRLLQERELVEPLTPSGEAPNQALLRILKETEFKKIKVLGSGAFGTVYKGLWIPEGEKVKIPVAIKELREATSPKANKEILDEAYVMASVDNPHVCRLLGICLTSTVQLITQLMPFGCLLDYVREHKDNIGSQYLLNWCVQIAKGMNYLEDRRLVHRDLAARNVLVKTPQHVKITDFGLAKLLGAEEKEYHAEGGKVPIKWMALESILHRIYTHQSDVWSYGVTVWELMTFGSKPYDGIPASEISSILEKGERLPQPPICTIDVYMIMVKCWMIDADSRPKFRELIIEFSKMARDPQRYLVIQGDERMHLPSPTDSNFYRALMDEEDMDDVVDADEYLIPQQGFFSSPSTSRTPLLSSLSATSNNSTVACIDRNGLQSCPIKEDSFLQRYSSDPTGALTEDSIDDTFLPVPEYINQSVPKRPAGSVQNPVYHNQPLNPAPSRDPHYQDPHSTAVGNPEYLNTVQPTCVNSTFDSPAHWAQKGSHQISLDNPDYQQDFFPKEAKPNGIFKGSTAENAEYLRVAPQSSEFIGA
# Measurement notes: EGFR autophosphorylation kinase assay (DELFIA/time-resolved fluorometry)
Assignment: determine reported pIC50 for the given compounds.
A value of pIC50 is the negative decimal logarithm of a concentration given in moles per litre.

Query :: Write down pIC50 measured for item COc1ccc(C2CC(c3ccc4c(c3)OCCO4)=NN2C(N)=S)cc1 (centres unmarked)
Result :: 4.42

Query :: Write down pIC50 measured for item COc1cccc(C2CC(c3ccc4c(c3)OCCO4)=NN2C(N)=S)c1 (centres unmarked)
Result :: 4.36

Query :: Write down pIC50 measured for item NC(=S)N1N=C(c2ccc3c(c2)OCCO3)CC1c1ccc2ccccc2c1 (centres unmarked)
Result :: 5.35

Query :: Write down pIC50 measured for item NC(=S)N1N=C(c2ccc3c(c2)OCCO3)CC1c1cccc(OCc2ccccc2)c1 (centres unmarked)
Result :: 5.35

Query :: Write down pIC50 measured for item NC(=S)N1N=C(c2ccc3c(c2)OCCO3)CC1c1ccc(C(F)(F)F)cc1 (centres unmarked)
Result :: 4.10

====

# Measured on: HER-2 (Homo sapiens, UniProt P04626)
# Sequence (P04626 676-1245): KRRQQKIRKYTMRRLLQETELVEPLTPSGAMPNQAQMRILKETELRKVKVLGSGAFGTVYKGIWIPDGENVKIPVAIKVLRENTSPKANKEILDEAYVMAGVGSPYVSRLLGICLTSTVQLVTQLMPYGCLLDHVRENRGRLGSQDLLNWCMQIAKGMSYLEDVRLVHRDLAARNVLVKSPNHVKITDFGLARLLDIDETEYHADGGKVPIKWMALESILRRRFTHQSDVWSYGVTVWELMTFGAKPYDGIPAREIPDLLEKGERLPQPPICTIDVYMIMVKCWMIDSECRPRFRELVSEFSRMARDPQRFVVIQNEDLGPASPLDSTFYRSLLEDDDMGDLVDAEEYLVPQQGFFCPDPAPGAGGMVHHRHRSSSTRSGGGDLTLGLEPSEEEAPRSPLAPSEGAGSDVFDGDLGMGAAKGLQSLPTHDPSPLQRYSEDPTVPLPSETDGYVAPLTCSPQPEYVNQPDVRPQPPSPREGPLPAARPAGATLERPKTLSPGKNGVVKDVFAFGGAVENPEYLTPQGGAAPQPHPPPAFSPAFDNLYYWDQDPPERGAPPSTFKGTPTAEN
# Measurement notes: HER-2 autophosphorylation kinase assay (DELFIA/time-resolved fluorometry)
pIC50: −log10 of the molar value.
Mark Not satisfied for pIC50 values under 6, and Satisfied for everything at or above.

Query :: Can NC(=S)N1N=C(c2ccc3c(c2)OCCO3)CC1c1ccccc1F (centres unmarked) be said to have pIC50 at or above 6?
Result :: Not satisfied

Query :: Can NC(=S)N1N=C(c2ccc3c(c2)OCCO3)CC1c1cccc(Br)c1 (centres unmarked) be said to have pIC50 at or above 6?
Result :: Satisfied

Query :: Can Cc1ccc(C2CC(c3ccc4c(c3)OCCO4)=NN2C(N)=S)cc1 (centres unmarked) be said to have pIC50 at or above 6?
Result :: Satisfied
